species on record: Bos taurus; experiment: Displacement of [3H]colchicine from bovine brain tubulin at 1 uM
Give measured Activity for each item. Keep answers brief.
Give bare numbers, in %.

CCOC(=O)N1CCc2c(sc(N)c2C(=O)c2cc(OC)c(OC)c(OC)c2)C1	67
COc1cc(C(=O)c2c(N)sc3ccccc23)cc(OC)c1OC	25
COC(=O)N1CCc2c(sc(N)c2C(=O)c2cc(OC)c(OC)c(OC)c2)C1	71

Task: Form field: reported Activity of COc1ccc(/C=C\c2cc(OC)c(OC)c(OC)c2)cc1O [COMBRETASTATIN A4]
Output: 90

* * *

Give measured pIC50 for each item. Keep answers brief.
test: Antiproliferative activity against human Molt4/C8 cells; type: functional, cell-based; conditions: MOLT-4
pIC50: −log10 of the molar value.

Examples from the recorded data:
CCN1CCc2c(sc(N)c2C(=O)c2cc(OC)c(OC)c(OC)c2)C1	5.74
COc1cc(C(=O)c2c(N)sc3c2CCN(C(=O)NC(C)C)C3)cc(OC)c1OC	< 5.00
CCCN1CCc2c(sc(N)c2C(=O)c2cc(OC)c(OC)c(OC)c2)C1	< 5.00
COc1cc(C(=O)c2c(N)sc3c2CCN(C(=O)OCc2ccccc2)C3)cc(OC)c1OC	5.12
COc1cc(C(=O)c2c(N)sc3c2CCN(C(=S)NC(C)(C)C)C3)cc(OC)c1OC	< 5.00

Next, consider the following molecule.
Task: Form field: reported pIC50 of COc1cc(C(=O)c2c(N)sc3c2CCN(C)C3)cc(OC)c1OC
Output: < 5.00

* * *

test: Antiproliferative activity against human Molt4/C8 cells; format: functional, cell-based; conditions: MOLT-4
pIC50: −log10 of the molar value.
Decide using pIC50: a value greater than or equal to 6 is yes (1), a smaller one is no (0).

COC(=O)N1CCc2c(sc(N)c2C(=O)c2cc(OC)c(OC)c(OC)c2)C1	yes (1)
CCNC(=S)N1CCc2c(sc(N)c2C(=O)c2cc(OC)c(OC)c(OC)c2)C1	no (0)
COc1cc(C(=O)c2c(N)sc3cnccc23)cc(OC)c1OC	yes (1)
CNC(=S)N1CCc2c(sc(N)c2C(=O)c2cc(OC)c(OC)c(OC)c2)C1	no (0)
CCCOC(=O)N1CCc2c(sc(N)c2C(=O)c2cc(OC)c(OC)c(OC)c2)C1	yes (1)
COc1cc(C(=O)c2c(N)sc3c2CCN(C(=O)NCc2ccccc2)C3)cc(OC)c1OC	no (0)
COc1cc(C(=O)c2c(N)sc3c2CCN(C(=O)Oc2ccccc2)C3)cc(OC)c1OC	no (0)
COc1cc(C(=O)c2c(N)sc3c2CCN(Cc2ccccc2)C3)cc(OC)c1OC	no (0)

From here, focus on the item given below.
Task: Check this compound for pIC50 at or above 6: CCCCNC(=O)N1CCc2c(sc(N)c2C(=O)c2cc(OC)c(OC)c(OC)c2)C1
Output: no (0)

* * *

Give measured pIC50 for each item. Keep answers brief.
assay: Antiproliferative activity against human Molt4/C8 cells; format: functional, cell-based; settings: MOLT-4
Answers are plain numbers, as −log10 of the molar value.

COc1cc(C(=O)c2c(N)sc3c2CCN(C(C)=O)C3)cc(OC)c1OC	5.96
CCOC(=O)N1CCc2c(sc(N)c2C(=O)c2cc(OC)c(OC)c(OC)c2)C1	6.54
COc1cc(C(=O)c2c(N)sc3c2CCN(C(=S)NC2CCCCC2)C3)cc(OC)c1OC	6.12
COc1ccc(/C=C\c2cc(OC)c(OC)c(OC)c2)cc1O [COMBRETASTATIN A4]	8.80

Task: Form field: reported pIC50 of COc1cc(C(=O)c2c(N)sc3ccccc23)cc(OC)c1OC
Output: 7.14
